Target: HCV NS5B polymerase 1a-H77 (Hepatitis C virus genotype 1a, UniProt P27958)
Construct: six-histidine tag; made in house; host or cells: E. coli
Sequence (P27958 2421-2990): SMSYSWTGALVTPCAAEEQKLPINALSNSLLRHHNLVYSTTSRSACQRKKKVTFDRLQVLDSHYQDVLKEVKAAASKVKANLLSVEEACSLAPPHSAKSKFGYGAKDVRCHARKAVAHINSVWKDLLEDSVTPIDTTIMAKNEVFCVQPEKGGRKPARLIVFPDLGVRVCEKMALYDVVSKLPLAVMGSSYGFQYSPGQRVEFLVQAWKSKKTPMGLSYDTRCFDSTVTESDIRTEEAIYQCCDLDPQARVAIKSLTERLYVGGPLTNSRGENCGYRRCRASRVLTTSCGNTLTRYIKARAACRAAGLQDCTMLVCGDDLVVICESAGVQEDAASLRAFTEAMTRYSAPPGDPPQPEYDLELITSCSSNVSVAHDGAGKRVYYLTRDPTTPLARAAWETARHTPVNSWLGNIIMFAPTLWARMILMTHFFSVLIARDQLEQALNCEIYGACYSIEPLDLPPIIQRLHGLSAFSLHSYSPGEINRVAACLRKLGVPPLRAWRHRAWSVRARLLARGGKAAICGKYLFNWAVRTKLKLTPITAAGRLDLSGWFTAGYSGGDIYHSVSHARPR
Assay: biochemical
Design: species or system HCV genotype 1a
Details: enzyme, strain 1a H77; read-out: HCV Polymerase Strain 1a H77 IC50
Protocol: Purified HCV NS5B polymerase enzymes were used for polymerase inhibition assays. […] The reaction was initiated by the addition of 20 μM CTP, 20 μM ATP, 0.284 μM (0.5 μCi) of 5,6-[^3H] […] After drying thoroughly in air, 30 μL of Microscint-20 scintillation cocktail (Perkin Elmer) was added to each well, and the retained cpm were determined by scintillation counting. IC50 values were determined by nonlinear regression. […]
Would you mind telling me the reported pIC50 of each entry?
Give bare numbers, as −log10 of the molar value.

CS(=O)(=O)N(CC1CCOCC1)c1cc2oc(-c3ccc(F)cc3)c(-c3ncc[nH]3)c2cc1C1CC1: 8.30
CCCCCCN(c1cc2oc(-c3ccc(F)cc3)c(-c3ncc[nH]3)c2cc1C1CC1)S(C)(=O)=O: 8.05
CS(=O)(=O)N(CCCCCO)c1cc2oc(-c3ccc(F)cc3)c(C3=NOCCN3)c2cc1C1CC1: 8.10

# next compound below
Reported pIC50 for "[2H]C([2H])(CCCCC)N(c1cc2oc(-c3ccc(F)cc3)c(-c3ncc[nH]3)c2cc1C1CC1)S(C)(=O)=O" : what is it?
8.19

---

biological target: HCV NS5B polymerase 1a-H77 (Hepatitis C virus genotype 1a, UniProt P27958); construct: six-histidine tag; made in house; host or cells: E. coli; assay: biochemical; set-up: species or system HCV genotype 1a; conditions: enzyme, strain 1a H77; read-out: HCV Polymerase Strain 1a H77 IC50
measurement-label: IC50 (nM)
Numbers only, in nM.

These recorded examples may help you get a feel for the data.
CC(C)CCN(c1cc2oc(-c3ccc(F)cc3)c(C3=NOCCN3)c2cc1C1CC1)S(C)(=O)=O: 7
CCCc1nc(-c2c(-c3ccc(F)cc3)oc3cc(N(CCC(C)C)S(C)(=O)=O)c(C4CC4)cc23)no1: 179000
CC[S+]([O-])CCCN(c1cc2oc(-c3ccc(F)cc3)c(C3=NOCCN3)c2cc1C1CC1)S(C)(=O)=O (stereo not drawn): 7
CS(=O)(=O)N(CCN)c1cc2oc(-c3ccc(F)cc3)c(-c3ncc[nH]3)c2cc1C1CC1: 9.9
CC(C)CCN(c1cn2nc(-c3ccc(F)cc3)c(-c3ncc[nH]3)c2cc1C1CC1)S(C)(=O)=O: 34.9
Cc1nc(-c2c(-c3ccc(F)cc3)oc3cc(NS(C)(=O)=O)c(C4CC4)cc23)[nH]c1C: 10300

Parameter requested: IC50. Apply to each item below.
1. CS(=O)(=O)N(CCCN1CCS(=O)(=O)CC1)c1cc2oc(-c3ccc(F)cc3)c(C3=NOCCN3)c2cc1C1CC1
2. CC(C)CCN(c1cc2oc(-c3ccc(F)cc3)c(-c3ncc[nH]3)c2cc1C1CC1)S(C)(=O)=O
3. CS(=O)(=O)N(CCC1CCCCC1)c1cc2oc(-c3ccc(F)cc3)c(-c3ncc[nH]3)c2cc1C1CC1
4. CS(=O)(=O)N(CN1C(=O)c2ccccc2C1=O)c1cc2oc(-c3ccc(F)cc3)c(-c3ncc[nH]3)c2cc1C1CC1
5. COc1ccc(CN(c2cc3oc(-c4ccc(F)cc4)c(C4=NC(C)CN4)c3cc2C2CC2)S(C)(=O)=O)cc1 (stereo not drawn)
6. CS(=O)(=O)N(CCCN1CCCCC1)c1cc2oc(-c3ccc(F)cc3)c(C3=NOCCN3)c2cc1C1CC1

1. 7
2. 5.3
3. 14.3
4. 350
5. 15
6. 20.5

Parameter requested: IC50. Apply to each item below.
1. CS(=O)(=O)N(Cc1cccc(C(F)(F)F)c1)c1ccc2c(-c3ncc[nH]3)c(-c3ccccc3)oc2c1
2. CC(C)CCN(c1cc2oc(-c3ccc(F)cc3)c(C3=NOCN3)c2cc1C1CC1)S(C)(=O)=O
3. CCS(=O)(=O)CCCN(c1cc2oc(-c3ccc(F)cc3)c(C3=NOCCN3)c2cc1C1CC1)S(C)(=O)=O

[132, 6.3, 9]
